system: Beta Secretase enzyme (BACE) (Homo sapiens)
Sequence (P56817 46-501, species assumed): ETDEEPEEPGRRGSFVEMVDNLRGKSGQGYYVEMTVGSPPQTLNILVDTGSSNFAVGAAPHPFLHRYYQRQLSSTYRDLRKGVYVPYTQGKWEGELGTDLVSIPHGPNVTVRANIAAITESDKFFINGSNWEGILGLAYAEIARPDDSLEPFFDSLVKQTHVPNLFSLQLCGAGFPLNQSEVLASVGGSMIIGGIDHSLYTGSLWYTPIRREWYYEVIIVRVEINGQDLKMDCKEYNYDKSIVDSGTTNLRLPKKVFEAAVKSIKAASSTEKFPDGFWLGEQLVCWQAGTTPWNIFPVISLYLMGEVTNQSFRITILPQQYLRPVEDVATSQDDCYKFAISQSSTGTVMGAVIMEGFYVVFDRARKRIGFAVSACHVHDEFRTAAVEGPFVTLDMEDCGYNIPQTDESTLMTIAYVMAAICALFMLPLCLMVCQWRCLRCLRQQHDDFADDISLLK
assayNotes: In vitro enzymatic BACE FRET (fluorescence resonance energy transfer) assay
Format: biochemical
conditionSet: average IC50, enzyme assay; read-out: BACE 1 FRET assay
property: IC50 (nM)

Solved cases below.
State its IC50 on Beta Secretase enzyme (BACE) (Homo sapiens): "NC1=N[C@@]2(CO1)c1cc(-c3cccnc3F)ccc1Oc1c(F)cc(C3=CC(=O)OC3)cc12"
2.2

State its IC50 on Beta Secretase enzyme (BACE) (Homo sapiens): NC1=N[C@@]2(CO1)c1cc(-c3c(F)ccnc3F)ccc1Oc1cnc([C@H]3CCCCO3)cc12 [Example 914]
13.5

State its IC50 on Beta Secretase enzyme (BACE) (Homo sapiens): "N#Cc1cc(-c2ccc3c(c2)[C@@]2(COC(N)=N2)c2cc(-c4ccnc(F)c4)cnc2O3)ccc1F"
10.5

State its IC50 on Beta Secretase enzyme (BACE) (Homo sapiens): "NC1=N[C@]2(CO1)c1cc(C3=CCOCC3)cc(F)c1Oc1ccc(-c3cccnc3)c(F)c12"
21.2

State its IC50 on Beta Secretase enzyme (BACE) (Homo sapiens): "COc1cc(F)c2c(c1)[C@]1(COC(N)=N1)c1cc(-c3cncc(C(F)(F)F)c3)ccc1O2"
61.4

State its IC50 on Beta Secretase enzyme (BACE) (Homo sapiens): "CC1(C)C=C(c2cnc3c(c2)[C@]2(CSC(N)=N2)c2cc(-c4cccc(C#N)c4F)ccc2O3)CCO1"
4.8

State its IC50 on Beta Secretase enzyme (BACE) (Homo sapiens): "NC1=N[C@@]2(CO1)c1cc(-c3cccnc3F)ccc1Oc1c2cc(N2CCOCC2)nc1F"
0.3

State its IC50 on Beta Secretase enzyme (BACE) (Homo sapiens): "CC#Cc1cncc(-c2ccc3c(c2)[C@@]2(COC(N)=N2)c2cc(-c4cnn(C)c4)cnc2O3)c1"
0.5

State its IC50 on Beta Secretase enzyme (BACE) (Homo sapiens): "NC1=N[C@@]2(CS1)c1cc(-c3cccnc3)ccc1Oc1c2cc(-c2ccnc(F)c2)nc1F"
0.2

State its IC50 on Beta Secretase enzyme (BACE) (Homo sapiens): "N#Cc1cccc(-c2ccc3c(c2)[C@@]2(COC(N)=N2)c2cc(N4CCC(F)(F)CC4)nc(F)c2O3)c1"
0.3

1 = NC1=N[C@@]2(CS1)c1cc(-c3ccc(F)nc3)ccc1Oc1ncc(C3=CCOCC3)cc12
2 = C[C@@H]1CN(c2cc(F)c3c(c2)[C@]2(COC(N)=N2)c2cc(-c4cnccn4)ccc2O3)C[C@H](C)O1
When the recorded IC50 values are compared, which is smaller: that of 1 or that of 2 ? // caller expects the label of the chosen entry
1

I = CC1(C)CN(c2cc(F)c3c(c2)[C@]2(COC(N)=N2)c2cc(-c4cncc(F)c4)ccc2O3)CCO1
II = NC1=N[C@@]2(CO1)c1cc(-c3cnccn3)ccc1Oc1c(F)cc(N3C[C@@H]4C[C@H]3CO4)cc12
III = COC(C)(C)CNc1cc2c(cn1)Oc1ccc(-c3cccnc3F)cc1[C@@]21COC(N)=N1
Could you please order the items by IC50, going from the lowest number to the highest? Give the labels in the order requested.
I, III, II

P = NC1=N[C@@]2(CO1)c1cc(-c3cccnc3F)ccc1Oc1cnc(-c3cc(F)nc(F)c3)cc12
Q = C[C@@H]1CN(c2cc(F)c3c(c2)[C@]2(COC(N)=N2)c2cc(-c4cncc(F)c4)ccc2O3)C[C@H](C)O1
Just curious, which one has the larger IC50 reading, P or Q ? // caller expects the label of the chosen entry
Q
(Q: 2.9 nM, P: 0.4 nM)
